# assayName: in vitro
# conditionDetails: African green monkey, uninfected quiescent Vero-B cells
reportedMetric: CC50 at 4 days (µM)
Give bare numbers, in µM.

# molecule, CC50 at 4 days (µM)
records = [
    ("O=C(c1c[nH]c2ccccc12)C(Nc1cccc(C(F)(F)F)c1)c1ccccc1 (stereo not drawn)", 4),
    ("CC(=O)Nc1cccc(NC(C(=O)c2c[nH]c3ccccc23)c2ccccc2)c1 (stereo not drawn)", 61),
    ("COc1cc(NC(C(=O)c2c[nH]c3ccccc23)c2ccc(C)nc2)cc(OC)c1 (stereo not drawn)", 54),
    ("COc1cc(NC(C(=O)c2c(C)[nH]c3ccccc23)c2ccccc2)cc(OC)c1 (stereo not drawn)", 14),
    ("COc1cccc(NC(C(=O)c2c[nH]c3cc(F)ccc23)c2cnc(OC)cn2)c1 (stereo not drawn)", 22),
    ("COc1cc(NC(C(=O)c2c[nH]c3ccccc23)c2ccccc2)c(F)c(OC)c1 (stereo not drawn)", 106),
    ("O=C(c1c[nH]c2ccccc12)C(NCC1COc2ccccc2O1)c1ccccc1 (stereo not drawn)", 11),
    ("COc1cccc(NC(C(=O)c2c[nH]c3ccc(CN(C)C)cc23)c2ccccc2)c1 (stereo not drawn)", 13),
]

So, COc1cc(NC(C(=O)c2c[nH]c3ccc(F)cc23)c2ccccc2)cc(OCCO)c1 (stereo not drawn) ? Its CC50 at 4 days was 44
